B1: EHEE_rd4_0726 (parent)
chain: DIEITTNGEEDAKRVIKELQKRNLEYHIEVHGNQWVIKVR

- Variants of: B1
- measurement protocol: folding stability dG (cDNA display proteolysis); higher = more stable
- condition info: PBS, room temperature
Label label 1 for high-side folding stability dG (at or above 2 kcal/mol) and label 0 for low-side folding stability dG (below it).

[[record]]
mutation_string = "I2C"
assigned_label = "label 1"

[[record]]
mutation_string = "D11M"
assigned_label = "label 1"

[[record]]
mutation_string = "E18W"
assigned_label = "label 1"

[[record]]
mutation_string = "V36N"
assigned_label = "label 0"

[[record]]
mutation_string = "T5H"
assigned_label = "label 1"

[[record]]
mutation_string = "R40A"
assigned_label = "label 1"

[[record]]
mutation_string = "R14P"
assigned_label = "label 0"

[[record]]
mutation_string = "R40L"
assigned_label = "label 1"

[[record]]
mutation_string = "K17V"
assigned_label = "label 1"

[[record]]
mutation_string = "N23Q"
assigned_label = "label 1"

[[record]]
mutation_string = "I4R"
assigned_label = "label 0"

[[record]]
mutation_string = "Q20V"
assigned_label = "label 1"

[[record]]
mutation_string = "R40V"
assigned_label = "label 1"

[[record]]
mutation_string = "K17D"
assigned_label = "label 1"

[[record]]
mutation_string = "N33S"
assigned_label = "label 1"

[[record]]
mutation_string = "I4V"
assigned_label = "label 0"

[[record]]
mutation_string = "D1M"
assigned_label = "label 1"

[[record]]
mutation_string = "D11N"
assigned_label = "label 1"

[[record]]
mutation_string = "K13G"
assigned_label = "label 0"

[[record]]
mutation_string = "K17Y"
assigned_label = "label 1"

[[record]]
mutation_string = "G32T"
assigned_label = "label 0"

[[record]]
mutation_string = "T6H"
assigned_label = "label 0"

[[record]]
mutation_string = "K17A"
assigned_label = "label 1"

[[record]]
mutation_string = "Q34D"
assigned_label = "label 0"

[[record]]
mutation_string = "Q20G"
assigned_label = "label 0"

[[record]]
mutation_string = "D1I"
assigned_label = "label 1"

[[record]]
mutation_string = "N33T"
assigned_label = "label 1"

[[record]]
mutation_string = "A12R"
assigned_label = "label 0"

[[record]]
mutation_string = "D1V"
assigned_label = "label 1"

[[record]]
mutation_string = "T6P"
assigned_label = "label 0"

[[record]]
mutation_string = "V15A"
assigned_label = "label 0"

[[record]]
mutation_string = "T5I"
assigned_label = "label 1"

[[record]]
mutation_string = "L19W"
assigned_label = "label 0"

[[record]]
mutation_string = "G8W"
assigned_label = "label 0"

[[record]]
mutation_string = "V30K"
assigned_label = "label 1"

[[record]]
mutation_string = "K13S"
assigned_label = "label 0"

[[record]]
mutation_string = "A12N"
assigned_label = "label 0"

[[record]]
mutation_string = "W35K"
assigned_label = "label 0"

[[record]]
mutation_string = "N7A"
assigned_label = "label 1"

[[record]]
mutation_string = "N23P"
assigned_label = "label 0"

[[record]]
mutation_string = "E25D"
assigned_label = "label 1"

[[record]]
mutation_string = "V15N"
assigned_label = "label 0"

[[record]]
mutation_string = "K38L"
assigned_label = "label 1"

[[record]]
mutation_string = "N23E"
assigned_label = "label 0"

[[record]]
mutation_string = "E9H"
assigned_label = "label 0"

[[record]]
mutation_string = "R14N"
assigned_label = "label 0"

[[record]]
mutation_string = "G32K"
assigned_label = "label 0"

[[record]]
mutation_string = "K21P"
assigned_label = "label 0"

[[record]]
mutation_string = "H31V"
assigned_label = "label 1"

[[record]]
mutation_string = "K13C"
assigned_label = "label 1"

[[record]]
mutation_string = "E3R"
assigned_label = "label 1"

[[record]]
mutation_string = "I28F"
assigned_label = "label 0"

[[record]]
mutation_string = "I2P"
assigned_label = "label 0"

[[record]]
mutation_string = "R40P"
assigned_label = "label 0"

[[record]]
mutation_string = "Q34P"
assigned_label = "label 0"

[[record]]
mutation_string = "E25H"
assigned_label = "label 1"

[[record]]
mutation_string = "Q34K"
assigned_label = "label 1"

[[record]]
mutation_string = "W35Y"
assigned_label = "label 0"

[[record]]
mutation_string = "K38Y"
assigned_label = "label 1"

[[record]]
mutation_string = "I2Q"
assigned_label = "label 0"

[[record]]
mutation_string = "E29N"
assigned_label = "label 0"

[[record]]
mutation_string = "T5D"
assigned_label = "label 0"

[[record]]
mutation_string = "T5W"
assigned_label = "label 1"

[[record]]
mutation_string = "T6Y"
assigned_label = "label 0"

[[record]]
mutation_string = "E25S"
assigned_label = "label 1"

[[record]]
mutation_string = "V36Y"
assigned_label = "label 0"

[[record]]
mutation_string = "G32E"
assigned_label = "label 0"

[[record]]
mutation_string = "R22W"
assigned_label = "label 1"

[[record]]
mutation_string = "H31E"
assigned_label = "label 0"

[[record]]
mutation_string = "E25F"
assigned_label = "label 1"

[[record]]
mutation_string = "E3T"
assigned_label = "label 1"

[[record]]
mutation_string = "Q34F"
assigned_label = "label 1"

[[record]]
mutation_string = "I16Y"
assigned_label = "label 0"

[[record]]
mutation_string = "E3V"
assigned_label = "label 1"

[[record]]
mutation_string = "K13F"
assigned_label = "label 1"

[[record]]
mutation_string = "E3W"
assigned_label = "label 1"

[[record]]
mutation_string = "K38A"
assigned_label = "label 0"

[[record]]
mutation_string = "N7S"
assigned_label = "label 1"

[[record]]
mutation_string = "G8T"
assigned_label = "label 1"

[[record]]
mutation_string = "E9Q"
assigned_label = "label 0"

[[record]]
mutation_string = "D1R"
assigned_label = "label 1"

[[record]]
mutation_string = "K17P"
assigned_label = "label 0"

[[record]]
mutation_string = "K38V"
assigned_label = "label 1"

[[record]]
mutation_string = "Y26S"
assigned_label = "label 0"

[[record]]
mutation_string = "I2A"
assigned_label = "label 0"

[[record]]
mutation_string = "D11Y"
assigned_label = "label 1"

